Sourced from ChEMBL document CHEMBL4354878

Molecular target: Human immunodeficiency virus type 1 reverse transcriptase (Human immunodeficiency virus 1, UniProt Q72547, Y181C)
Experiment: Inhibition of HIV1 RT Y181C mutant in presence of reconstituted template and viral nucleotides [digoxigenin (DIG)-dUTP, biotin-dUTP and dTTP] incubated for 1 hr by ELISA method
endpoint label: IC50 (nM)
Provide only the numeric value, understood in nM.

Before answering, review these 2 worked examples.
{"molecular string": "Cc1cc(C#N)cc(C)c1Oc1nc(NC2CCN(Cc3ccc(S(N)(=O)=O)cc3)CC2)nc2ccsc12", "measurement unit": "nM", "IC50": 126}
{"molecular string": "Cc1cc(/C=C/C#N)cc(C)c1Oc1nc(NC2CCN(Cc3ccc(S(N)(=O)=O)cc3)CC2)nc2sccc12", "measurement unit": "nM", "IC50": 141}

[in] # query: IC50 of entry Cc1cc(/C=C/C#N)cc(C)c1Oc1nc(NC2CCN(Cc3ccc(S(N)(=O)=O)cc3)CC2)nc2ccsc12
[out] 149
